Molecular target: T1, human CD86-murine Ig fusion protein (human)
T1 construct: Bought (Ancell #509-820); also called hCD86-mIg
T1 chain: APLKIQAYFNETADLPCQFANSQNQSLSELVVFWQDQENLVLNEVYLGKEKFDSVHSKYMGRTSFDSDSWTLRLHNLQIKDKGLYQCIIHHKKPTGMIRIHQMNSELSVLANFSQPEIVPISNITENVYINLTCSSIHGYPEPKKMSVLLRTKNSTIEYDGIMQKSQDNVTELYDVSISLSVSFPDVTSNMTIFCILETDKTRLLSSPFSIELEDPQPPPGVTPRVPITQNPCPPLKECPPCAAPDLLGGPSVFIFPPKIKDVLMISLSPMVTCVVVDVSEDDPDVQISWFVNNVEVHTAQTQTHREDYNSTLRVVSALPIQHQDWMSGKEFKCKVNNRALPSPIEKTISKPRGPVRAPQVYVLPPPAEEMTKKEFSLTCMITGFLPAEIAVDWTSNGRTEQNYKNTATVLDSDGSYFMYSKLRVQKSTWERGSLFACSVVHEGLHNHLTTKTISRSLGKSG
Assay: SPR Biacore, hCD86-mIg captured
The binders listed here are annotated with their Binding Avidity (Relative to Orencia).
experimentalReadout: Binding Avidity (Relative to Orencia)

INSERT INTO measurements (binder, experimentalreadout, resultvalue) VALUES
  ('D3-54-IgG2 (Fc fusion) MHVAQPAVVLASSRGIASFVCEYASPGKANEVRVTVLRQADSQVTEVCAMTYMKENELTFLDDPICTGTFSGNQVNLTIQGLRAMDTGLYICKVELMYPPPYYLGIGNGTQIYVIDPEPCPDSDERKCCVECPPCPAPPVAGPSVFLFPPKPKDTLMISRTPEVTCVVVDVSHEDPEVQFNWYVDGVEVHNAKTKPREEQFNSTFRVVSVLTVVHQDWLNGKEYKCKVSNKGLPAPIEKTISKTKGQPREPQVYTLPPSREEMTKNQVSLTCLVKGFYPSDIAVEWESNGQPENNYKTTPPMLDSDGSFFLYSKLTVDKSRWQQGNVFSCSVMHEALHNHYTQKSLSLSPG', 'Binding Avidity (Relative to Orencia)', '> 40 fold'),
  ('D26-IgG2 (Fc fusion) MHVAQPAVVLASSRGIASFVCEYEAPHKANEVRVTVLREAGSQVTEVCAMTYMVEDELTFLDDPSCTGTFSGNQVNLTIQGLRAADTGLYICKVELMYPPPYYLGLGNGTQIYVIDPEPCPDSDERKCCVECPPCPAPPVAGPSVFLFPPKPKDTLMISRTPEVTCVVVDVSHEDPEVQFNWYVDGVEVHNAKTKPREEQFNSTFRVVSVLTVVHQDWLNGKEYKCKVSNKGLPAPIEKTISKTKGQPREPQVYTLPPSREEMTKNQVSLTCLVKGFYPSDIAVEWESNGQPENNYKTTPPMLDSDGSFFLYSKLTVDKSRWQQGNVFSCSVMHEALHNHYTQKSLSLSPG', 'Binding Avidity (Relative to Orencia)', '> 40 fold');
